- Tested on: U-251
- protocol.text: NCI tumour cell line growth inhibition, 48 h
Calls of active or inactive are those of the source. Cut-off read from the data, not from the text of the source: active = GI50 up to about 1.1 µM and inactive = higher.
Can you answer with just one of these options? active, inactive

Sample answers from the record:
compound | assigned.category
O=C(N/N=C/c1ccccc1)c1c(-c2cccnc2)cnc2ccccc12 | inactive
COc1cc(C2C(C(=O)Nc3ccccc3)=C(C)NC(C)=C2C(=O)Nc2ccccc2)ccc1O | inactive
CC(C)(C)[Si](C)(C)O/N=C\c1ccc(O[Si](C)(C)C(C)(C)C)cc1 | inactive
COC(=O)C1=C(C)C(=O)[C@H]2C(C(=O)OC)CCCC[C@@H]12 (stereo partly drawn) | inactive
Cc1nc(C)c(N2CCN([N+](=O)[O-])CC2)c(O)n1 | inactive
CC(C)(C)SC1=CCC[C@@H](P(=O)(c2ccccc2)c2ccccc2)[C@@H]2CCC[C@@H]12 | inactive
COc1ccc(/C=N/N=C(\N)NO)cc1O | inactive
NC(=O)CC(Nc1ncc2c(n1)-c1ccccc1OC2)C(=O)O (stereo not drawn) | inactive
CN(CC#N)C(=O)Cc1ccc([N+](=O)[O-])cc1 | inactive
C=CCC1(CC)C(=O)NC(=O)NC1=O [ETALLOBARBITAL] | inactive

Call for entry Clc1cc(Cl)nc(Nc2ccc3c(c2)CCC3)n1 :
inactive

Call for entry C[C@@H]1C[C@H](O)[C@]2(O)O[C@@H]3C[C@@]4(C=O)[C@@H](CC=C5[C@@H]4CC[C@]4(C)[C@@H](C6=CC(=O)OC6)CC[C@]54O)C[C@H]3O[C@@H]2O1 :
active

Call for entry CN(C(=O)C12C3C4C5C3C1(C(=O)O)C5C42)C(C)(C)C (stereo not drawn) :
inactive

Call for entry CC(=O)Oc1ccc2oc(=O)cc(C)c2c1 :
inactive

Call for entry C[n+]1c(-c2ccc(/C=N/NC(=S)N/N=C/c3ccc(-c4cn5ccsc5[n+]4C)cc3)cc2)cn2ccsc21 :
inactive

Call for entry CN(C)c1ccc(-c2cc(O)c3cc4c(cc3n2)OCO4)cc1 :
inactive

Call for entry COc1cccc2c(=O)oc(-c3ccc(C(C)(C)C)cc3)nc12 :
inactive

Call for entry CC(=O)/C(=C/n1c(=S)sc2ccccc21)C(=O)Nc1ccccc1C :
inactive

Call for entry CCCCCCCCCCCCCCCCCCOCC(CCP(=O)(CP(=O)(O)O)Oc1ccccc1)OCCCCCCCCCCCCCCCCCC (stereo not drawn) :
inactive

Call for entry Cc1cccc2c1CCC21OC(=O)c2c1ccc1ccccc21 (stereo not drawn) :
inactive

Call for entry COc1ccc(CCn2nccc2C)cc1 :
inactive

Call for entry c1ccc2c(c1)Sc1nccc3ccnc-2c13 :
inactive

Call for entry COc1cccc(NC(=O)CC(=O)NN2C(=O)/C(=C/c3ccc(N(CCC#N)CCC#N)cc3)N=C2c2cc([N+](=O)[O-])ccc2Cl)c1 :
inactive

Call for entry O=C(O)c1cc(Cl)cc(Cc2cc(Cl)cc(C(=O)O)c2O)c1O :
inactive

Call for entry COc1ccc(C(=O)C/C(=N/NC(N)=S)C(=O)Nc2ccccc2)cc1 :
inactive

Call for entry c1ccc(CSc2nc(N3CCOCC3)c3cn[nH]c3n2)cc1 :
inactive

Call for entry Nc1ncnc2c1ncn2C1OC(COP(=O)(O)CP(=O)(O)O)C(O)C1O (stereo not drawn) :
inactive

Call for entry Clc1ncnc(Cl)c1Cl :
inactive

Call for entry C1=N\CCN2CCN(CC/N=C\c3ccc(cc3)OCc3cccc(n3)COc3ccc/1cc3)CC2 :
inactive

Call for entry CC1OC2OC3C(OCC(O)C3O)OC(=O)[C@]34CCC(C)(C)CC3C3=CCC5[C@@]6(C)C[C@H](O)[C@H](OC7OC(CO)C(O)C(O)C7OC7OC(COC(=O)CC(C)(O)CC(=O)OC1C(OC1OC(CO)C(O)C(O)C1O)C2O)C(O)C(O)C7O)[C@@](C)(CO)C6CC[C@@]5(C)[C@]3(C)CC4 (stereo partly drawn) :
inactive
